Test Name: SK-BR-3 cell growth inhibitors, pilot screen, 24 h, human (AID 572);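 note: compound exposure lasted between 18 and 24 h rather than exactly 24 h; 100% = carrier-treated control wells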
Assay Conditions: SK-BR-3 viability, CellTiter-Glo luminescence, at 10 µM, active compounds read low
Entries and their viability values follow.
Report the value in % with no unit label.

Here is how some molecules turned out for viability.
Molecule | Attribute Measured | Assay Value
COc1ccc2c(CC(=O)Nc3nnc(C4CC4)s3)coc2c1 | viability | 120
CCCc1nnc(NC(=O)CCC(=O)N2CCN(CCOc3ccc(C)cc3)CC2)s1 | viability | 93.5
CC(C)(C)C(=O)Cn1c(=N)n(Cc2ccccc2)c2ccccc21 | viability | 84.5

Tell me the measured viability of `COc1cccc(NS(=O)(=O)c2cc(C)sc2C)c1` , please.
93.5

Tell me the measured viability of `Cc1ccc(C)c2[nH]c(=O)c(CN(CCN3CCCC3)C(=O)Nc3cccc(Cl)c3)cc12` , please.
87

Tell me the measured viability of `COC(=O)c1sc2ccccc2c1NC(=O)c1cccs1` , please.
97.5

Tell me the measured viability of COC(=O)C(C)C1Sc2ccccc2NC1=O (stereo not drawn) , please.
121

Tell me the measured viability of `O=C(CCSc1ccccc1)N1CCOCC1` , please.
94

Tell me the measured viability of `CCOC(=O)C1CCN(C(=O)CSc2cc(=O)n(CC)c3ccccc23)CC1` , please.
85

Tell me the measured viability of Cc1cccc(CCNC(=O)C2CCCN(S(=O)(=O)c3cnc[nH]3)C2)c1 (stereo not drawn) , please.
99.5

Tell me the measured viability of `Cn1c(-c2ccccc2)cc(=O)c2ccccc21` , please.
98.5

Tell me the measured viability of CC1=C(C(=O)OCCOC(C)C)C(c2cc3c(cc2Br)OCO3)C2=C(CCCC2=O)N1 (stereo not drawn) , please.
102

Tell me the measured viability of `O=C(COC(=O)c1cc(-c2ccco2)nc2ccccc12)NCc1ccc2c(c1)OCO2` , please.
97

Tell me the measured viability of `CCCCOn1c(C)c(C(=O)OCC)c2c3nonc3ccc21` , please.
98.5

The values you see were collected from PubChem BioAssay.
